# TEST TARGET: human serum albumin (HSA) (Homo sapiens, UniProt P02768)
# Sequence (P02768 25-609): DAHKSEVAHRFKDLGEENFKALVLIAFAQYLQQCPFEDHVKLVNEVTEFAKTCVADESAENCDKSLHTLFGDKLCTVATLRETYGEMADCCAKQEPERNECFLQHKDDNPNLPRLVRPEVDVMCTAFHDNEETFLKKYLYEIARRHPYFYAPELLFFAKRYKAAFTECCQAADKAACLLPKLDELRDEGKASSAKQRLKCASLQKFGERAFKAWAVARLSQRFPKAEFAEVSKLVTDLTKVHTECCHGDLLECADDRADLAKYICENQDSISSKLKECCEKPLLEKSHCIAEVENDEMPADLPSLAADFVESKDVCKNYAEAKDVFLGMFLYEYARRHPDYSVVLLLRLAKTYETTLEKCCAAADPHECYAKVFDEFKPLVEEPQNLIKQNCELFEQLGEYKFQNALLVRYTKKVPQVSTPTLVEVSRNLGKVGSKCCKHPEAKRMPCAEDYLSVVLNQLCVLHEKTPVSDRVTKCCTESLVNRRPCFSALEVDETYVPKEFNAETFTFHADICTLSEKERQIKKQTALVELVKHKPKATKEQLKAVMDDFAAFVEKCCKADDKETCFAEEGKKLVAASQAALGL
# ASSAY NOTES: tryptophan fluorescence quenching
MEASURED ENDPOINT: pKd
Please keep in mind that pKd is minus log10 of the molar concentration; only the number is needed.

Exam item: Return reported pKd; argument: `C[C@]12CC[C@H]3[C@@H](CCC4=CC(=O)CC[C@@]43C)[C@@H]1CC[C@@H]2O`
Marked response: 3.44
